Origin of the recorded values: patent US4097599A

# Tested on: rat liver monoamine oxidase
# Experiment Notes: Inhibition of rat liver monoamine oxidase
# Assay type: biochemical
# Particulars: relative to I50 value of BTS 27271 = 100
Parameter: Relative inhibition of rat liver monoamine oxidase
Respond using a number only.

Lookup: Check the records and state Relative inhibition of rat liver monoamine oxidase for CCOc1ccc(-n2cnnc2C(F)(F)F)cc1
Found: 2.5

Lookup: Could you please provide reported Relative inhibition of rat liver monoamine oxidase for Cc1ccccc1-n1cnnc1C(F)(F)F ? Thanks!
Found: 2.5

Lookup: Quote Relative inhibition of rat liver monoamine oxidase reported for FC(F)(F)c1n[nH]c(-c2ccc(Cl)cc2)n1 please.
Found: 27

Lookup: Please indicate Relative inhibition of rat liver monoamine oxidase recorded for FC(F)(F)c1nnc(-c2ccc(Cl)cc2)n1-c1ccc(Cl)cc1
Found: 200
